# GI50 per record follows
# Test system: EKVX
# method_notes: NCI tumour cell line growth inhibition, 48 h
Calls of active or inactive are those of the source. No stated cut-off is given here; in the data, active = GI50 up to about 1.1 µM and inactive = higher.

Some compounds with recorded GI50:
compound	readout_value
O=C(OCC1CO1)c1cccs1 (stereo not drawn)	> 100 µM (inactive)
CCNC(=O)Nc1ccccn1	> 100 µM (inactive)
C=CO/N=[N+](\[O-])N(CC)CC	> 100 µM (inactive)

Value of measured GI50 for the entry `O=C(O)c1ccc(OCc2nc3cc(C(F)(F)F)ccc3nc2-c2ccccc2)cc1` : 55.7 µM (inactive)

Value of measured GI50 for the entry COc1ccc(-c2cc(-c3ccccc3)n(C3OCC(OC(C)=O)C(OC(C)=O)C3OC(C)=O)c(=S)c2C#N)cc1 (stereo not drawn) : > 100 µM (inactive)

Value of measured GI50 for the entry OCC1C(/C=C/c2ccoc2)ON2CCCC12 (stereo not drawn) : > 100 µM (inactive)

Value of measured GI50 for the entry `CC(C)(c1ccc(OC#N)cc1)c1ccc(OC#N)cc1` : > 100 µM (inactive)

Value of measured GI50 for the entry `OC[C@]1(n2nc3ccccc3n2)OC[C@@H]1c1ccccc1` : > 100 µM (inactive)

Value of measured GI50 for the entry `O=C1C(Cl)=CC2(C=C1Cl)CCNC1=C2C(=O)c2nc[nH]c2C1=O` : 51.8 µM (inactive)

Value of measured GI50 for the entry `COC(=O)CCC1(O)C=CC(=O)C=C1` : > 100 µM (inactive)

Value of measured GI50 for the entry Nc1ccccc1CC(O)C(=O)O (stereo not drawn) : > 100 µM (inactive)

Value of measured GI50 for the entry `Cc1ncc(CO)c(CN)c1O` : > 100 µM (inactive)

Value of measured GI50 for the entry C=CCc1ccccc1CC1(OCC)OC(=O)c2ccccc21 (stereo not drawn) : > 100 µM (inactive)
